# System: Propionibacterium acnes ATCC 6919
# Procedure text: MIC, agar dilution method NCCLS M11-A6, Brucella agar, anaerobic (Table 9, superscript c)
# Format: cell-based
# Experimental parameters: ATCC 6919
# Experimental: A bacterial suspension was prepared to allow for a final inoculum on the plate of 1.5×10^8 CFU/milliliter. After the suspension absorbed into the agar surface, the plates were incubated for 48-96 hours at 37° C. in a GasPak anaerobic chamber. The lowest concentration of peptide that contained no colony growth on the agar plate was determined as the MIC. MIC values that utilized this method of MIC determination are indicated in Table 9 with a superscript letter “c.”
Non-standard residues stand in square brackets, D forms with d. Residues, ends and D or L forms follow the SMILES beside them. *: point of attachment. Lauroyl = CCCCCCCCCCCC(=O)*
Metric name: MIC P. acnes (c ug/mL)
Kindly provide the numeric value in c ug/mL only, without the unit symbol.

Data request, read-out MIC P. acnes, for CCCCCCCCCCCC(=O)N[C@H](CCCNC(=N)N)C(=O)N[C@H](CO)C(=O)N[C@H](CCCNC(=N)N)C(=O)N[C@H](CC(C)C)C(=O)N[C@H](CCCNC(=N)N)C(=O)N[C@H](CC(=O)O)C(=O)N[C@H](CC(C)C)C(=O)N[C@H](CC(C)C)C(=O)N[C@H](CCCNC(=N)N)C(=O)N[C@H](CC(N)=O)C(=O)N[C@H](CC(C)C)C(=O)N[C@H](C)C(=O)N[C@H](CCCNC(=N)N)C(N)=O [Peptide 132, Lauryl-rsrlrdllrnlar-NH2] (Lauroyl-[dR][dS][dR][dL][dR][dD][dL][dL][dR][dN][dL][dA][dR]-NH2) 8

# repeat for CCCCCCCCCCCC(=O)N[C@H](CCCNC(=N)N)C(=O)N[C@H](CO)C(=O)N[C@H](C)C(=O)N[C@H](Cc1c[nH]c2ccccc12)C(=O)N[C@H](CCCNC(=N)N)C(=O)N[C@H](CC(=O)O)C(=O)N[C@@H](C(=O)N[C@H](C)C(=O)N[C@H](CCCNC(=N)N)C(=O)N[C@H](CC(N)=O)C(=O)N[C@H](Cc1ccccc1)C(=O)N[C@H](CCSC)C(=O)N[C@H](CCCNC(=N)N)C(N)=O)C(C)C [Peptide 238, Lauryl-rsawrdvarnfmr-NH2] (Lauroyl-[dR][dS][dA][dW][dR][dD][dV][dA][dR][dN][dF][dM][dR]-NH2) 32

# repeat for CCCCCCCCCCCC(=O)N[C@H](CCCNC(=N)N)C(=O)N[C@H](CO)C(=O)N[C@H](CCCNC(=N)N)C(=O)N[C@H](Cc1c[nH]c2ccccc12)C(=O)N[C@H](CCCNC(=N)N)C(=O)N[C@H](CC(=O)O)C(=O)N[C@@H](C(=O)N[C@H](C)C(=O)N[C@H](CCCNC(=N)N)C(=O)N[C@H](CC(N)=O)C(=O)N[C@H](Cc1ccccc1)C(=O)N[C@H](CC(C)C)C(N)=O)C(C)C [Peptide 211, Lauryl-rsrwrdvarnfl-NH2] (Lauroyl-[dR][dS][dR][dW][dR][dD][dV][dA][dR][dN][dF][dL]-NH2) 4

# repeat for CCCCCCCCCCCC(=O)N[C@H](CCCNC(=N)N)C(=O)N[C@H](CO)C(=O)N[C@H](CCCNC(=N)N)C(=O)N[C@H](Cc1c[nH]c2ccccc12)C(=O)N[C@H](CCCNC(=N)N)C(=O)N[C@H](CC(=O)O)C(=O)N[C@@H](C(=O)N[C@H](C)C(=O)N[C@H](CCCNC(=N)N)C(=O)N[C@H](C)C(=O)N[C@H](Cc1ccccc1)C(=O)N[C@H](CC(C)C)C(=O)N[C@H](CCCNC(=N)N)C(N)=O)C(C)C [Peptide 226, Lauryl-rsrwrdvaraflr-NH2] (Lauroyl-[dR][dS][dR][dW][dR][dD][dV][dA][dR][dA][dF][dL][dR]-NH2) 32

* * *

# Tested on: Pseudomonas aeruginosa ATCC 27853
# Procedure text: MIC, NCCLS M7-A6 broth microdilution (Table 9, no superscript)
# Assay type: cell-based
# Experimental parameters: ATCC 27853
Non-standard residues stand in square brackets, D forms with d. Residues, ends and D or L forms follow the SMILES beside them. *: point of attachment. Lauroyl = CCCCCCCCCCCC(=O)*; Decanoyl = CCCCCCCCCC(=O)*
The entries below come with measured MIC P. aeruginosa values attached.
Kindly provide the numeric value in µg/mL only, without the unit symbol.

1) CCCCCCCCCCCC(=O)N[C@@H](CCCNC(=N)N)C(=O)N[C@@H](Cc1c[nH]c2ccccc12)C(=O)N[C@@H](CCCNC(=N)N)C(=O)N[C@@H](CC(=O)O)C(=O)N[C@H](C(=O)N[C@@H](C)C(=O)N[C@@H](CCCNC(=N)N)C(N)=O)C(C)C [Peptide 105, Lauryl-RWRDVAR-NH2] (Lauroyl-RWRDVAR-NH2) : 32
2) CCCCCCCCCCCC(=O)N[C@H](CCCNC(=N)N)C(=O)N[C@H](CO)C(=O)N[C@H](CCCNC(=N)N)C(=O)N[C@H](Cc1c[nH]c2ccccc12)C(=O)N[C@H](CCCNC(=N)N)C(=O)N[C@H](CC(=O)O)C(=O)N[C@@H](C(=O)N[C@H](C)C(=O)N[C@H](CCCNC(=N)N)C(N)=O)C(C)C [Peptide 118, Lauryl-rsrwrdvar-NH2] (Lauroyl-[dR][dS][dR][dW][dR][dD][dV][dA][dR]-NH2) : 32

Would you kindly look at the next entry?
Request body: readout MIC P. aeruginosa, system Pseudomonas aeruginosa ATCC 27853, query CCCCCCCCCC(=O)N[C@H](CCCNC(=N)N)C(=O)N[C@H](CO)C(=O)N[C@H](CCCNC(=N)N)C(=O)N[C@H](Cc1c[nH]c2ccccc12)C(=O)N[C@H](CCCNC(=N)N)C(=O)N[C@H](CC(=O)O)C(=O)N[C@@H](C(=O)N[C@H](C)C(=O)N[C@H](CCCNC(=N)N)C(=O)N[C@H](CC(N)=O)C(=O)N[C@H](Cc1ccccc1)C(=O)N[C@H](CC(C)C)C(=O)N[C@H](CCCNC(=N)N)C(N)=O)C(C)C [Peptide 190, Decanyl-rsrwrdvarnflr-NH2] (Decanoyl-[dR][dS][dR][dW][dR][dD][dV][dA][dR][dN][dF][dL][dR]-NH2) . Return the value. 8

* * *

# System: Pseudomonas aeruginosa ATCC 27853
# Procedure text: MIC, NCCLS M7-A6 broth microdilution (Table 9, no superscript)
# Type: cell-based
# Experimental parameters: ATCC 27853
Non-standard residues stand in square brackets, D forms with d. Residues, ends and D or L forms follow the SMILES beside them. *: point of attachment. Lauroyl = CCCCCCCCCCCC(=O)*; Decanoyl = CCCCCCCCCC(=O)*
Metric name: MIC P. aeruginosa (µg/mL)
Kindly provide the numeric value in µg/mL only, without the unit symbol.

1. CCCCCCCCCCCC(=O)N[C@H](CCCNC(=N)N)C(=O)N[C@H](C)C(=O)N[C@H](CCCNC(=N)N)C(=O)N[C@H](Cc1c[nH]c2ccccc12)C(=O)N[C@H](CCCNC(=N)N)C(=O)N[C@H](CC(=O)O)C(=O)N[C@@H](C(=O)N[C@H](C)C(=O)N[C@H](CCCNC(=N)N)C(=O)N[C@H](CC(N)=O)C(=O)N[C@H](Cc1ccccc1)C(=O)N[C@H](CCSC)C(=O)N[C@H](CCCNC(=N)N)C(N)=O)C(C)C [Peptide 237, Lauryl-rarwrdvarnfmr-NH2] (Lauroyl-[dR][dA][dR][dW][dR][dD][dV][dA][dR][dN][dF][dM][dR]-NH2) : 8
2. CCCCCCCCCC(=O)N[C@@H](CCCNC(=N)N)C(=O)N[C@@H](CO)C(=O)N[C@@H](CCCNC(=N)N)C(=O)N[C@@H](Cc1c[nH]c2ccccc12)C(=O)N[C@@H](CCCNC(=N)N)C(=O)N[C@@H](CC(=O)O)C(=O)N[C@H](C(=O)N[C@@H](C)C(=O)N[C@@H](CCCNC(=N)N)C(=O)N[C@@H](CC(N)=O)C(=O)N[C@@H](Cc1ccccc1)C(=O)N[C@@H](CCSC)C(=O)N[C@@H](CCCNC(=N)N)C(N)=O)C(C)C [Peptide 204, Decanyl-RSRWRDVARNFMR-NH2] (Decanoyl-RSRWRDVARNFMR-NH2) : 32

Would you kindly look at the next entry?
Data request, read-out MIC P. aeruginosa, for CCCCCCCCCCCC(=O)N[C@@H](CCCNC(=N)N)C(=O)N[C@@H](CO)C(=O)N[C@@H](CCCNC(=N)N)C(=O)N[C@@H](Cc1c[nH]c2ccccc12)C(=O)N[C@@H](CCCNC(=N)N)C(=O)N[C@@H](CC(=O)O)C(=O)N[C@H](C(=O)N[C@@H](C)C(=O)N[C@@H](CCCNC(=N)N)C(=O)N[C@@H](CC(N)=O)C(=O)N[C@@H](Cc1ccccc1)C(=O)N[C@@H](C)C(=O)N[C@@H](CCCNC(=N)N)C(N)=O)C(C)C [Peptide 97, Lauryl-RSRWRDVARNFAR-NH2] (Lauroyl-RSRWRDVARNFAR-NH2) 32
